# System: NCI-H460
# method notes: Cytotoxicity against human NCI-H460 cells after 48 hrs by MTT assay
# Format: functional, cell-based
# condition summary: NCI-H460, 48 h
reported endpoint: IC50 (µg/mL)

[[record]]
chem_smiles = "Cc1noc2cc3c(nc12)[nH]c1ccc(Cl)cc13"
reported_endpoint = "IC50"
observed_measurement = 36.4

[[record]]
chem_smiles = "Cc1noc2cc3c(nc12)[nH]c1ccc(Br)cc13"
reported_endpoint = "IC50"
observed_measurement = 63.2

[[record]]
chem_smiles = "Cc1noc2cc3c(nc12)[nH]c1c(C)cccc13"
reported_endpoint = "IC50"
observed_measurement = 20.4

[[record]]
chem_smiles = "Cc1noc2cc3c(nc12)[nH]c1ccc(F)cc13"
reported_endpoint = "IC50"
observed_measurement = 52.4

[[record]]
chem_smiles = "Cc1noc2cc3c(nc12)[nH]c1ccccc13"
reported_endpoint = "IC50"
observed_measurement = 49.2

[[record]]
chem_smiles = "Cc1noc2cc3c(nc12)[nH]c1c(Cl)cccc13"
reported_endpoint = "IC50"
observed_measurement = 52.3

[[record]]
chem_smiles = "Cc1ccc2[nH]c3nc4c(C)noc4cc3c2c1"
reported_endpoint = "IC50"
observed_measurement = 16.7

[[record]]
chem_smiles = "COc1ccc2[nH]c3nc4c(C)noc4cc3c2c1"
reported_endpoint = "IC50"
observed_measurement = 45.2

